// data source = paper PMC10329973

Assay: Multiple ascending dose study NP10679-102, plasma pharmacokinetics
Type: in vivo
Details: human, iv, 25 mg, Cmax, MAD, 25 mg IV once daily, day 1
REPORTED_ENDPOINT: Cmax (ng/mL)
Just the number in ng/mL, nothing appended.

Inquiry: What measured Cmax goes with `O=C1CCc2cc(OC[C@H](O)CN3CCN(c4ccc(C(F)(F)F)cc4)CC3)ccc2N1` ?
Reply text: 208

* * *

Assay: In vitro metabolic stability, hepatic microsomes
Assay type: in vitro ADME, mice, rats, dogs, and humans
Settings: mouse, rat, dog, human, liver microsomes
REPORTED_ENDPOINT: half-life

Inquiry: What measured half-life goes with O=C1CCc2cc(OC[C@H](O)CN3CCN(c4ccc(C(F)(F)F)cc4)CC3)ccc2N1 [NP10679] ?
Reply text: > 2 h

* * *

Experiment: Multiple ascending dose study NP10679-102, plasma pharmacokinetics
Assay type: in vivo
Conditions: human, iv, 50 mg, T 1/2, MAD, 50 mg IV once daily, day 5
REPORTED_ENDPOINT: half-life (h)
Just the number in h, nothing appended.

Inquiry: What measured half-life goes with O=C1CCc2cc(OC[C@H](O)CN3CCN(c4ccc(C(F)(F)F)cc4)CC3)ccc2N1 [NP10679] ?
Reply text: 21

* * *

Experiment: Single ascending dose study NP10679-101, plasma pharmacokinetics
Type: in vivo, human
Settings: human, plasma, iv, 100 mg, VSS, SAD, single IV infusion 100 mg, mean ± SD
REPORTED_ENDPOINT: Vd

Inquiry: What measured Vd goes with `O=C1CCc2cc(OC[C@H](O)CN3CCN(c4ccc(C(F)(F)F)cc4)CC3)ccc2N1` ?
Reply text: 259 L

* * *

Assay: Single ascending dose study NP10679-101, plasma pharmacokinetics
Format: in vivo, human
Conditions: human, plasma, iv, 15 mg
REPORTED_ENDPOINT: AUC(0-inf) (ng·h/mL)
Just the number in ng·h/mL, nothing appended.

Inquiry: What measured AUC(0-inf) goes with O=C1CCc2cc(OC[C@H](O)CN3CCN(c4ccc(C(F)(F)F)cc4)CC3)ccc2N1 [NP10679] ?
Reply text: 1280

* * *

Assay: Single ascending dose study NP10679-101, plasma pharmacokinetics
Format: in vivo, human
Conditions: human, plasma, iv, 150 mg
REPORTED_ENDPOINT: clearance (mL/min)
Just the number in mL/min, nothing appended.

Inquiry: What measured clearance goes with O=C1CCc2cc(OC[C@H](O)CN3CCN(c4ccc(C(F)(F)F)cc4)CC3)ccc2N1 [NP10679] ?
Reply text: 183

* * *

Test: Multiple ascending dose study NP10679-102, plasma pharmacokinetics
Assay type: in vivo
Details: human, iv, 50 mg, AUC 0–24, MAD, 50 mg IV once daily, day 1
REPORTED_ENDPOINT: AUC(0-t)
Field: value (include unit after the number)

Inquiry: What measured AUC(0-t) goes with `O=C1CCc2cc(OC[C@H](O)CN3CCN(c4ccc(C(F)(F)F)cc4)CC3)ccc2N1` ?
Reply text: 2650 ng·h/mL

* * *

Experiment: Single ascending dose study NP10679-101, plasma pharmacokinetics
Type: in vivo, human
Settings: human, plasma, iv, 200 mg
REPORTED_ENDPOINT: Cmax (ng/mL)
Just the number in ng/mL, nothing appended.

Inquiry: What measured Cmax goes with `O=C1CCc2cc(OC[C@H](O)CN3CCN(c4ccc(C(F)(F)F)cc4)CC3)ccc2N1` ?
Reply text: 2070

* * *

Experiment: Multiple ascending dose study NP10679-102, plasma pharmacokinetics
Assay type: in vivo
Settings: human, iv, 50 mg, Cmax, MAD, 50 mg IV once daily, day 3
REPORTED_ENDPOINT: Cmax (ng/mL)
Just the number in ng/mL, nothing appended.

Inquiry: What measured Cmax goes with O=C1CCc2cc(OC[C@H](O)CN3CCN(c4ccc(C(F)(F)F)cc4)CC3)ccc2N1 [NP10679] ?
Reply text: 335

* * *

Assay: Single ascending dose study NP10679-101, plasma pharmacokinetics
Assay type: in vivo, human
Settings: human, plasma, iv, 5 mg
REPORTED_ENDPOINT: Cmax (ng/mL)
Just the number in ng/mL, nothing appended.

Inquiry: What measured Cmax goes with O=C1CCc2cc(OC[C@H](O)CN3CCN(c4ccc(C(F)(F)F)cc4)CC3)ccc2N1 [NP10679] ?
Reply text: 27

* * *

Assay: Multiple ascending dose study NP10679-102, plasma pharmacokinetics
Assay type: in vivo
Details: human, iv, 50 mg, AUC 0–24, MAD, 50 mg IV once daily, day 4
REPORTED_ENDPOINT: AUC(0-t) (ng·h/mL)
Just the number in ng·h/mL, nothing appended.

Inquiry: What measured AUC(0-t) goes with O=C1CCc2cc(OC[C@H](O)CN3CCN(c4ccc(C(F)(F)F)cc4)CC3)ccc2N1 [NP10679] ?
Reply text: 4110

* * *

Experiment: Single ascending dose study NP10679-101, plasma pharmacokinetics
Format: in vivo, human
Conditions: human, plasma, iv, 15 mg
REPORTED_ENDPOINT: Cmax (ng/mL)
Just the number in ng/mL, nothing appended.

Inquiry: What measured Cmax goes with `O=C1CCc2cc(OC[C@H](O)CN3CCN(c4ccc(C(F)(F)F)cc4)CC3)ccc2N1` ?
Reply text: 99

* * *

Assay: Multiple ascending dose study NP10679-102, plasma pharmacokinetics
Assay type: in vivo
Details: human, iv, 100 mg, Cmax, MAD, 100 mg IV once daily, day 1
REPORTED_ENDPOINT: Cmax (ng/mL)
Just the number in ng/mL, nothing appended.

Inquiry: What measured Cmax goes with `O=C1CCc2cc(OC[C@H](O)CN3CCN(c4ccc(C(F)(F)F)cc4)CC3)ccc2N1` ?
Reply text: 1240

* * *

Assay: Multiple ascending dose study NP10679-102, plasma pharmacokinetics
Type: in vivo
Details: human, iv, 50 mg, Tmax, MAD, 50 mg IV once daily, day 2
REPORTED_ENDPOINT: Tmax (h)
Just the number in h, nothing appended.

Inquiry: What measured Tmax goes with `O=C1CCc2cc(OC[C@H](O)CN3CCN(c4ccc(C(F)(F)F)cc4)CC3)ccc2N1` ?
Reply text: 1

* * *

Experiment: Multiple ascending dose study NP10679-102, plasma pharmacokinetics
Format: in vivo
Conditions: human, iv, 100 mg, AUC 0–96, MAD, 100 mg IV once daily, day 5
REPORTED_ENDPOINT: AUC(0-t) (ng·h/mL)
Just the number in ng·h/mL, nothing appended.

Inquiry: What measured AUC(0-t) goes with O=C1CCc2cc(OC[C@H](O)CN3CCN(c4ccc(C(F)(F)F)cc4)CC3)ccc2N1 [NP10679] ?
Reply text: 13900

* * *

Assay: Multiple ascending dose study NP10679-102, plasma pharmacokinetics
Format: in vivo
Conditions: human, iv, 100 mg, T 1/2, MAD, 100 mg IV once daily, day 4
REPORTED_ENDPOINT: half-life (h)
Just the number in h, nothing appended.

Inquiry: What measured half-life goes with O=C1CCc2cc(OC[C@H](O)CN3CCN(c4ccc(C(F)(F)F)cc4)CC3)ccc2N1 [NP10679] ?
Reply text: 34

* * *

Experiment: Multiple ascending dose study NP10679-102, plasma pharmacokinetics
Type: in vivo
Conditions: human, iv, 100 mg, Tmax, MAD, 100 mg IV once daily, day 1
REPORTED_ENDPOINT: Tmax (min)
Just the number in min, nothing appended.

Inquiry: What measured Tmax goes with `O=C1CCc2cc(OC[C@H](O)CN3CCN(c4ccc(C(F)(F)F)cc4)CC3)ccc2N1` ?
Reply text: 30

* * *

Test: Multiple ascending dose study NP10679-102, plasma pharmacokinetics
Type: in vivo
Conditions: human, iv, 50 mg, Tmax, MAD, 50 mg IV once daily, day 3
REPORTED_ENDPOINT: Tmax (min)
Just the number in min, nothing appended.

Inquiry: What measured Tmax goes with `O=C1CCc2cc(OC[C@H](O)CN3CCN(c4ccc(C(F)(F)F)cc4)CC3)ccc2N1` ?
Reply text: 48

* * *

Assay: Multiple ascending dose study NP10679-102, plasma pharmacokinetics
Format: in vivo
Conditions: human, iv, 100 mg, Cmax, MAD, 100 mg IV once daily, day 5
REPORTED_ENDPOINT: Cmax
Field: value (include unit after the number)

Inquiry: What measured Cmax goes with `O=C1CCc2cc(OC[C@H](O)CN3CCN(c4ccc(C(F)(F)F)cc4)CC3)ccc2N1` ?
Reply text: 1080 ng/mL

* * *

Test: Single ascending dose study NP10679-101, plasma pharmacokinetics
Type: in vivo, human
Conditions: human, plasma, iv, 100 mg
REPORTED_ENDPOINT: clearance
Field: value (include unit after the number)

Inquiry: What measured clearance goes with `O=C1CCc2cc(OC[C@H](O)CN3CCN(c4ccc(C(F)(F)F)cc4)CC3)ccc2N1` ?
Reply text: 183 mL/min

* * *

Assay: Multiple ascending dose study NP10679-102, plasma pharmacokinetics
Assay type: in vivo
Conditions: human, iv, 100 mg, Tmax, MAD, 100 mg IV once daily, day 2
REPORTED_ENDPOINT: Tmax (min)
Just the number in min, nothing appended.

Inquiry: What measured Tmax goes with `O=C1CCc2cc(OC[C@H](O)CN3CCN(c4ccc(C(F)(F)F)cc4)CC3)ccc2N1` ?
Reply text: 48
